Reference source: patent US20230263822A1

experiment: Tolerability in Sprague-Dawley rats: liver function (Example 35); settings: plasma, 50 mg/kg s.c. twice per week for 6 weeks
Please provide measured AST for the entries that follow.
Provide only the numeric value, understood in IU/L.

## Task // returns reported AST for input ISIS 416864: MOE gapmer, nucleobases 1275 to 1318 of SEQ ID NO: 1 (Table 8) (antisense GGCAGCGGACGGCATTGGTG; MOE gapmer, wing and gap sizes not given here)
## Result 68

## Task Data request, read-out AST, for ISIS 417002: MOE gapmer, nucleobases 1275 to 1318 of SEQ ID NO: 1 (Table 8) (antisense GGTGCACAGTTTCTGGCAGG; MOE gapmer, wing and gap sizes not given here)
## Result 11

## Task AST for ISIS 416838: MOE gapmer, nucleobases 1018 to 1042 of SEQ ID NO: 1 (Table 6) (antisense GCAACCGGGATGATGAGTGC; MOE gapmer, wing and gap sizes not given here) ?
## Result 2

## Task # get_value(readout='AST', item= ISIS 416850: MOE gapmer, nucleobases 1275 to 1318 of SEQ ID NO: 1 (Table 8) (antisense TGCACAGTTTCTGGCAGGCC; MOE gapmer, wing and gap sizes not given here) )
## Result 5

## Task Requested field: AST. Item: ISIS 416858: MOE gapmer, nucleobases 1275 to 1318 of SEQ ID NO: 1 (Table 8) (antisense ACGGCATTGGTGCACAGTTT; MOE gapmer, wing and gap sizes not given here)
## Result 4

###

test: Hematology assays in cynomolgus monkeys (Example 45); assay type: in vivo; settings: day 15
recorded endpoint: basophils (%)
Record the value in %, omitting the unit from your answer.

## Task Look up basophils for this substance: ISIS 416850: MOE gapmer, nucleobases 1275 to 1318 of SEQ ID NO: 1 (Table 8) (antisense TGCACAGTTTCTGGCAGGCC; MOE gapmer, wing and gap sizes not given here)
## Result 0.2

## Task Query (substance): ISIS 417002: MOE gapmer, nucleobases 1275 to 1318 of SEQ ID NO: 1 (Table 8) (antisense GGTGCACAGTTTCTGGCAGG; MOE gapmer, wing and gap sizes not given here) ; field requested: basophils
## Result 0.2

## Task Bench note: what basophils did ISIS 416858: MOE gapmer, nucleobases 1275 to 1318 of SEQ ID NO: 1 (Table 8) (antisense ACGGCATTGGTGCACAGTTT; MOE gapmer, wing and gap sizes not given here) show?
## Result 0.2

## Task What value of basophils has been recorded for this entry: ISIS 416864: MOE gapmer, nucleobases 1275 to 1318 of SEQ ID NO: 1 (Table 8) (antisense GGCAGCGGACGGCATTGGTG; MOE gapmer, wing and gap sizes not given here)
## Result 0.2

## Task // returns reported basophils for input ISIS 416838: MOE gapmer, nucleobases 1018 to 1042 of SEQ ID NO: 1 (Table 6) (antisense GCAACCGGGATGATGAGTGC; MOE gapmer, wing and gap sizes not given here)
## Result 0.3

###

tested on: human Factor 11 mRNA; experiment: Dose-dependent inhibition of human Factor 11 in HepG2 cells, electroporation 375-12,000 nM (Example 32); type: cell-based; conditions: electroporation, 3,000 nM, approx. 16 hours, relative to untreated control cells
Strand notation (5' to 3'): a small letter for the sugar, then the base; units joined by * are phosphorothioate-linked, units joined directly phosphodiester-linked; [ ] holds rarer units or linkages, { } end groups; capitals alone tell only the bases. e = 2'-O-(2-methoxyethyl) (MOE); [5mC] = 5-methylcytosine; d = 2'-deoxy (DNA)
Field: Percent inhibition of Factor 11 mRNA at 3,000 nM. Provide a value for each of the substances that follow.
Report as a plain number; the unit % is understood.

## Task Give the measured Percent inhibition of Factor 11 mRNA at 3,000 nM of 449708 (antisense eA*e[5mC]*eA*dG*dT*dT*dT*d[5mC]*dT*dG*dG*e[5mC]*eA*eG) [compound 449708] .
## Result 33

## Task Bench note: what Percent inhibition of Factor 11 mRNA at 3,000 nM did 416858 (antisense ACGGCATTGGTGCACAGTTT; 5-10-5 gapmer, further chemistry not given here) [compound 416858] show?
## Result 85

## Task Can you share its Percent inhibition of Factor 11 mRNA at 3,000 nM? I mean this substance: 445531 (antisense eG*eG*e[5mC]*eA*eT*dT*dG*dG*dT*dG*d[5mC]*dA*d[5mC]*eA*eG*eT*eT*eT) [compound 445531]
## Result 86
